In this section we review reported pKi values for a set of molecules.
TEST SYSTEM: ^3H-imipramine binding in brain tissue
CONDITION PARAMETERS: read-out: inhibition constant (Ki) vs. ^3H-imipramine
pKi: −log10 of the molar value.
MEASURED ATTRIBUTE: pKi

INSERT INTO assay_data (molecule, reported_result) VALUES
  ('COc1ccc(C2CN(C)COC23CCCCC3)cc1 (centres unmarked)', 6.46),
  ('CN(C)CC(c1ccc(Cl)cc1)C1(O)CCCCC1 (centres unmarked)', 7.00);

====

Listing of recorded IC50 by entry.
TEST SYSTEM: synaptosomal uptake of serotonin (14C-5-HT) (Homo sapiens, UniProt P31645)
Sequence (P31645 whole entry): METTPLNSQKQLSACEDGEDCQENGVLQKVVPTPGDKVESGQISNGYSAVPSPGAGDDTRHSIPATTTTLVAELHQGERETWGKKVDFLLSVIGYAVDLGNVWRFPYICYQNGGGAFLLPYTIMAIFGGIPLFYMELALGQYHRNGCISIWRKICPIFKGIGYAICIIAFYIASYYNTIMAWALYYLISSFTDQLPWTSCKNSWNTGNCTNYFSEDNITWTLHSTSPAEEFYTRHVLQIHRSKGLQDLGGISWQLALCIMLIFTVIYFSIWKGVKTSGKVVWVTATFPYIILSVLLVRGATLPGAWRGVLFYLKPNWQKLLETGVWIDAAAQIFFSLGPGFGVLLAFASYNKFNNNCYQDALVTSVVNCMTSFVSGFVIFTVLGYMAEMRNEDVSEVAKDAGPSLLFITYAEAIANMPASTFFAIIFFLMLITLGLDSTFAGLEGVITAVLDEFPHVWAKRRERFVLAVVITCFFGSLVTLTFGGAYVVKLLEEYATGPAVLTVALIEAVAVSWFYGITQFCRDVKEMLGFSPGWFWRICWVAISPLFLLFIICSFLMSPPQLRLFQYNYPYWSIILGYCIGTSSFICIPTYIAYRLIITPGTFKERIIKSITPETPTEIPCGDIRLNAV
RUN DESCRIPTION: biochemical
MEASURED ATTRIBUTE: IC50

INSERT INTO assay_data (compound, reported_result) VALUES
  ('COc1ccc(C2CN(C)COC23CCCCC3)cc1 (centres unmarked) [Compound B]', '2900 nM'),
  ('CN(C)CC(c1ccc(Cl)cc1)C1(O)CCCCC1 (centres unmarked) [Compound C]', '250 nM');

====

TEST SYSTEM: synaptosomal uptake of norepinephrine (^3H-NE)
Sequence (P23975 whole entry): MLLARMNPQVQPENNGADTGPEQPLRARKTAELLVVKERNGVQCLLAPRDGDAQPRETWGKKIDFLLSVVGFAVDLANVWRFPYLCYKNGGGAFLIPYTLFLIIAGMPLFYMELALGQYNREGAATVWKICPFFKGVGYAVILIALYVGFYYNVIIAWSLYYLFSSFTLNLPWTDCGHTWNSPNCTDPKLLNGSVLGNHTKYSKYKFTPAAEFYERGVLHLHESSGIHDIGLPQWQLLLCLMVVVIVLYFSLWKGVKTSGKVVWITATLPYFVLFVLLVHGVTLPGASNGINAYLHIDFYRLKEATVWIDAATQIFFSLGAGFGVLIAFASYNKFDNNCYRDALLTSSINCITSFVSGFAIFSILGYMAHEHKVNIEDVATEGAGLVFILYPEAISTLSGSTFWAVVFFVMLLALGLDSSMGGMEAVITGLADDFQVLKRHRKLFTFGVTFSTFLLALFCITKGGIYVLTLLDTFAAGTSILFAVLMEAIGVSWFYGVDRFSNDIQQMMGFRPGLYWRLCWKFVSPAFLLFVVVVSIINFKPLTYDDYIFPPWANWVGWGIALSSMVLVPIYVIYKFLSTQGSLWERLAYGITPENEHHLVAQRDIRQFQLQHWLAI
RUN DESCRIPTION: Inhibition of synaptosomal NE uptake
MEASURED ATTRIBUTE: IC50 (µM)

INSERT INTO assay_data (molecule, measured_attribute, unit_annotation, reported_result) VALUES
  ('COc1ccc(C2CN(C)COC23CCCCC3)cc1 (stereo not drawn)', 'IC50', 'µM', 4.7),
  ('CN(C)CC(c1ccc(Cl)c(Cl)c1)C1(O)CCCCC1 (stereo not drawn)', 'IC50', 'µM', 0.07),
  ('CN(C)CC(c1ccc(Cl)cc1)C1(O)CCCCC1 (stereo not drawn)', 'IC50', 'µM', 0.33);

====

TEST SYSTEM: ^3H-imipramine binding in brain tissue
CONDITION PARAMETERS: read-out: inhibition constants (vs. ^3H-imipramine)
pKi: −log10 of the molar value.
MEASURED ATTRIBUTE: pKi

INSERT INTO measurements (compound, reported_result) VALUES
  ('CN(C)CC(c1cccc(Cl)c1)C1(O)CCCCC1 (stereo not shown)', 6.89);

====

TEST SYSTEM: ^3H-imipramine binding in brain tissue
CONDITION PARAMETERS: unit inferred, read-out: inhibition constants (vs. ^3H-imipramine)
pKi: −log10 of the molar value.
Parameter: pKi. Scope: all listed entries.
MEASURED ATTRIBUTE: pKi

INSERT INTO measurements (compound, reported_result) VALUES
  ('CN(C)CC(c1ccc(Cl)c(Cl)c1)C1(O)CCCCC1 (stereo not drawn) [Compound G]', 7.43),
  ('CN(C)CC(c1ccc(Br)cc1)C1(O)CCCCC1 (stereo not drawn) [Compound D]', 7.21),
  ('CN(C)CC(c1cccc(Br)c1)C1(O)CCCCC1 (stereo not drawn) [Compound F]', 7.28);

Origin of measurements: patent EP0112669A2
